# target-under-test: GST-Aq-NF-kB (Amphimedon queenslandica, UniProt A9Y5G7 2-389)
# Sequence: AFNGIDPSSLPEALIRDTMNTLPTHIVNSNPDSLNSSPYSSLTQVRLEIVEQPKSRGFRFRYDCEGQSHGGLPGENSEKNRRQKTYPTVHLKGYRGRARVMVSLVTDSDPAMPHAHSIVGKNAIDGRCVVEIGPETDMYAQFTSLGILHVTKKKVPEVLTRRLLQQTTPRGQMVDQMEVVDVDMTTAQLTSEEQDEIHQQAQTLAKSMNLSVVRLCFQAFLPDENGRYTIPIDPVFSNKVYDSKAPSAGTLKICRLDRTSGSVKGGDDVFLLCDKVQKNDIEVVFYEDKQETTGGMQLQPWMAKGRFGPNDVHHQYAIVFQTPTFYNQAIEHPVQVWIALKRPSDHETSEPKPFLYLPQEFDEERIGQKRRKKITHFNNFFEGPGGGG
# procedure-summary: protein-binding microarray (PBM); PBM: ~300 nM protein, 6 mM HEPES pH 7.8, 80 mM KCl, 0.5 mM EDTA, 0.5 mM EGTA, 6% glycerol, 35 ng/ul poly-dIdC, 1% milk, 1 h, room temperature; high values mean tight binding
# condition-info: dsDNA, one strand shown
Each record is given 1 (yes) if its reported binding signal is strictly below 4 z-score. Records at or above 4 z-score are given 0 (no).

> print(dat)
                              sequence.chain  class.label
 1  CCGATTAACATCAAAGAAATTCCTGATGTTAATCGGGTCTTGATTCGCTTGACGCTGCTG      1 (yes)
 2  CCGATTAACATCAGGAATACCCCTGATGTTAATCGGGTCTTGATTCGCTTGACGCTGCTG       0 (no)
 3  CCGATTAACATCAAAATTTTCCATGATGTTAATCGGGTCTTGATTCGCTTGACGCTGCTG      1 (yes)
 4  CCGATTAACATCAGAAACCCCCATGATGTTAATCGGGTCTTGATTCGCTTGACGCTGCTG       0 (no)
 5  CCGATTAACATCAGAAATTACCCTGATGTTAATCGGGTCTTGATTCGCTTGACGCTGCTG       0 (no)
 6  CCGATTAACATCAACGATTCCCCTGATGTTAATCGGGTCTTGATTCGCTTGACGCTGCTG       0 (no)
 7  CCGATTAACATCAGGTTTTCCCATGATGTTAATCGGGTCTTGATTCGCTTGACGCTGCTG       0 (no)
 8  CCGATTAACATCAGGGACTTCCATGATGTTAATCGGGTCTTGATTCGCTTGACGCTGCTG       0 (no)
 9  CCGATTAACATCATTTCCCAAAATGATGTTAATCGGGTCTTGATTCGCTTGACGCTGCTG      1 (yes)
10  CCGATTAACATCAATTCCCAAAATGATGTTAATCGGGTCTTGATTCGCTTGACGCTGCTG      1 (yes)

Below 4 z-score on binding signal? Entry CCGATTAACATCAGGGATTACCCTGATGTTAATCGGGTCTTGATTCGCTTGACGCTGCTG
0 (no)

Field entry: CCGATTAACATCAGGGGAAGGACTGATGTTAATCGGGTCTTGATTCGCTTGACGCTGCTG
0 (no)

Field entry: CCGATTAACATCAAAAAAGTCCCTGATGTTAATCGGGTCTTGATTCGCTTGACGCTGCTG
0 (no)

Field entry: CCGATTAACATCACGGGGGAATATGATGTTAATCGGGTCTTGATTCGCTTGACGCTGCTG
0 (no)

Field entry: CCGATTAACATCAGGGGCCGTAATGATGTTAATCGGGTCTTGATTCGCTTGACGCTGCTG
1 (yes)

Field entry: CCGATTAACATCACCCTTCCCCCTGATGTTAATCGGGTCTTGATTCGCTTGACGCTGCTG
0 (no)

Field entry: CCGATTAACATCAATTTTTCCCATGATGTTAATCGGGTCTTGATTCGCTTGACGCTGCTG
1 (yes)

Field entry: CCGATTAACATCAAAAATCCACCTGATGTTAATCGGGTCTTGATTCGCTTGACGCTGCTG
1 (yes)

====

Exercise: for every item that follows, state its recorded binding signal.
# target-under-test: GST-Co-NF-kB (Capsaspora owczarzaki, UniProt F1ARL5 200-546)
# Sequence: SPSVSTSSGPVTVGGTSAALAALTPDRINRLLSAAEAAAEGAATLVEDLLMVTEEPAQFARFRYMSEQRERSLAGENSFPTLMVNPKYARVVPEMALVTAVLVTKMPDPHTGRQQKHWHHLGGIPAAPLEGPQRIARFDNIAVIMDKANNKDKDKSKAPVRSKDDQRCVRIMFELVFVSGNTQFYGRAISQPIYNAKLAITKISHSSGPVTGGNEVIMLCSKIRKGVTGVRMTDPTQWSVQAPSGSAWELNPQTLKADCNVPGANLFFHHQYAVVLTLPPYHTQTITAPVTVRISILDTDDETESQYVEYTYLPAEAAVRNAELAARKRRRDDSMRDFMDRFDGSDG
# procedure-summary: protein-binding microarray (PBM); PBM: ~300 nM protein, 6 mM HEPES pH 7.8, 80 mM KCl, 0.5 mM EDTA, 0.5 mM EGTA, 6% glycerol, 35 ng/ul poly-dIdC, 1% milk, 1 h, room temperature; high values mean tight binding
# condition-info: dsDNA, one strand shown
Numbers only, in z-score.

These solved cases illustrate the format of a correct answer.
> print(dat)
                             sequence.chain                         target.under.test  measured.result
1  CCGATTAACATCAGGATTACCCCTGATGTTAATCGGGTCTTGATTCGCTTGACGCTGCTG  GST-Co-NF-kB (Capsaspora owczarzaki, UniProt F1ARL5 200-546)             3.97
2  CCGATTAACATCAAAAATCCACCTGATGTTAATCGGGTCTTGATTCGCTTGACGCTGCTG  GST-Co-NF-kB (Capsaspora owczarzaki, UniProt F1ARL5 200-546)             1.26

Hey, can you go through the list below and give me binding signal for every item?
1. CCGATTAACATCAGGGAATGCCCTGATGTTAATCGGGTCTTGATTCGCTTGACGCTGCTG
2. CCGATTAACATCAGGCAACCCCATGATGTTAATCGGGTCTTGATTCGCTTGACGCTGCTG
3. CCGATTAACATCAGGGGGAAAACTGATGTTAATCGGGTCTTGATTCGCTTGACGCTGCTG
4. CCGATTAACATCAAGGAACTCCCTGATGTTAATCGGGTCTTGATTCGCTTGACGCTGCTG
5. CCGATTAACATCAAAATTTACCCTGATGTTAATCGGGTCTTGATTCGCTTGACGCTGCTG

1.43
1.23
11.7
1.49
4.27

Hey, can you go through the list below and give me binding signal for every item?
1. CCGATTAACATCAAAAAACCCCCTGATGTTAATCGGGTCTTGATTCGCTTGACGCTGCTG
2. CCGATTAACATCACGGCATTCCCTGATGTTAATCGGGTCTTGATTCGCTTGACGCTGCTG

[5.28, 1.73]

====

# target-under-test: GST-Nv-NF-kB (Ser allele) (Nematostella vectensis, UniProt A7UNT2 2-411)
# Sequence: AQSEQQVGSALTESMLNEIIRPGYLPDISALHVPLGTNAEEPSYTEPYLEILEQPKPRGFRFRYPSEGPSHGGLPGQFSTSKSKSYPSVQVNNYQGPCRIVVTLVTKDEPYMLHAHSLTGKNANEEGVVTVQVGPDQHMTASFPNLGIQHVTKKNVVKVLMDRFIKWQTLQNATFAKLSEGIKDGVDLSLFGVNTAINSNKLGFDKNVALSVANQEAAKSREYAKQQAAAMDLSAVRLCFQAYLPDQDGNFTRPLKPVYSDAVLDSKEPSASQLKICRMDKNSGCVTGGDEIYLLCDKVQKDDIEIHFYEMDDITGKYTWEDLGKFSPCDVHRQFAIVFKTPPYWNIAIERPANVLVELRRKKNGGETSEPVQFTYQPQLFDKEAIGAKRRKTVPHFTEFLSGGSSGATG
# procedure-summary: protein-binding microarray (PBM); PBM: ~300 nM protein, 6 mM HEPES pH 7.8, 80 mM KCl, 0.5 mM EDTA, 0.5 mM EGTA, 6% glycerol, 35 ng/ul poly-dIdC, 1% milk, 1 h, room temperature; Ap Aiptasia and Nv Nematostella (sea anemones) / Co Capsaspora / Aq Amphimedon (sponge) / Dm Drosophila / Hu human; RHD is the Rel homology domain; high values mean tight binding
# condition-info: dsDNA, one strand shown
Group membership follows binding signal per the scheme lower level (below 3 z-score), middle level (3 z-score to below 7 z-score), upper level (7 z-score or more)

Sample answers from the record:
> print(dat)
                             sequence.chain   class.label
1  CCGATTAACATCAGCACGGGAAATGATGTTAATCGGGTCTTGATTCGCTTGACGCTGCTG   lower level
2  CCGATTAACATCAAATTATCCCCTGATGTTAATCGGGTCTTGATTCGCTTGACGCTGCTG   upper level
3  CCGATTAACATCAGGTTATTCCATGATGTTAATCGGGTCTTGATTCGCTTGACGCTGCTG   lower level
4  CCGATTAACATCAATCCCCACATTGATGTTAATCGGGTCTTGATTCGCTTGACGCTGCTG  middle level
5  CCGATTAACATCAAATTACCCCCTGATGTTAATCGGGTCTTGATTCGCTTGACGCTGCTG  middle level
6  CCGATTAACATCAGGGGAGATTATGATGTTAATCGGGTCTTGATTCGCTTGACGCTGCTG  middle level
7  CCGATTAACATCACTACCCCCCCTGATGTTAATCGGGTCTTGATTCGCTTGACGCTGCTG   lower level
8  CCGATTAACATCAAAGTCTCCCCTGATGTTAATCGGGTCTTGATTCGCTTGACGCTGCTG  middle level

Band for the recorded binding signal of CCGATTAACATCAGGGGGACAACTGATGTTAATCGGGTCTTGATTCGCTTGACGCTGCTG ?
middle level

Field entry: CCGATTAACATCAAACTTCCCCGTGATGTTAATCGGGTCTTGATTCGCTTGACGCTGCTG
upper level

Field entry: CCGATTAACATCAGGAGAGTCCCTGATGTTAATCGGGTCTTGATTCGCTTGACGCTGCTG
middle level

These entries and their values trace back to paper PMC5700166.
